- assayed system: T1, β Amyloid peptide 1-40 (human, UniProt P05067 672-711)
- T1 construct: domain: β Amyloid peptide 1-40; Biotinylated peptide 1-40 (Biosource) on avidin Sepharose only captured free antibody in KinExA; also called Aβ 1-40; human Aβ (1-40)
- T1 sequence (P05067 672-711 limits assumed): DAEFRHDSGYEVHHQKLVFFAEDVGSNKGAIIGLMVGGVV
- method summary: KinExA, mAb, equilibration 16 h
observable: kon
Just the number plus its unit, please.

{"binder": "1B7 monoclonal antibody (IgG1) (antibody, V domains shown) VH: EVQLVESGGGLVKPGGSLRLSCAASGFTFSRYSMSWVRQAPGKGLEWVGQINSRGNSTYYPDTVKGRFTISRDDSKNTLYLQMNSLKTEDTAVYYCTTGDFWGQGTLVTVSS VL: DIVMTQTPLSLSVTPGQPASISCRSSQSLIYSDGNAYLHWYLQKPGQSPQLLIYKVSNRFSGVPDRFSGSGSGTDFTLKISRVEAEDVGVYYCSQSTHSPWTFGGGTKVEIK", "recorded measurement": "1.76e+06 M⁻¹ s⁻¹"}
{"binder": "6C3 monoclonal antibody (IgG1) (antibody, V domains shown) VH: EVQLVESGGGLVKPGGSLRLSCAASGFTFSRYSMSWVRQAPGKGLEWVGQINSRGNSTYYPDTVKGRFTISRDDSKNTLYLQMNSLKTEDTAVYYCTTGDFWGQGTLVTVSS VL: DIVMTQTPLSLSVTPGQPASISCRSSQSLIYSDGNAYLHWYLQKPGQSPQLLIYKVSNRFSGVPDRFSGSGSGTDFTLKISRVEAEDVGVYYCTQSTHSPWTFGGGTKVEIK", "recorded measurement": "1.28e+06 M⁻¹ s⁻¹"}
{"binder": "m266 monoclonal antibody (antibody, V domains shown, CDR H2 N-glycosylated at the Asn-Ser-Thr sequence, Captured by goat anti-mouse Fc in BIAcore (mouse Fc); also called mouse antibody 266) VH: EVKLVESGGGLVQPGGSLKLSCAVSGFTFSRYSMSWVRQTPEKRLELVAQINSVGNSTYYPDTVKGRFTISRDNAEYTLSLQMSGLRSDDTATYYCASGDYWGQGTTLTVSS VL: DVVMTQTPLSLPVSLGDQASISCRSSQSLIYSDGNAYLHWFLQKPGQSPKLLIYKVSNRFSGVPDRFSGSGSGTDFTLKISRVETEDLGVYFCSQSTHVPWTFGGGTKLEIK", "recorded measurement": "88000 M⁻¹ s⁻¹"}
{"binder": "1C5 monoclonal antibody (IgG1) (antibody, V domains shown) VH: EVQLVESGGGLVKPGGSLRLSCAASGFTFSRYSMSWVRQAPGKGLEWVGQINSVANSTYYPDTVKGRFTISRDDSKNTLYLQMNSLKTEDTAVYYCTTGDFWGQGTLVTVSS VL: DIVMTQTPLSLSVTPGQPASISCRSSQSLIYSDGNAYLHWYLQKPGQSPQLLIYKVSNRFSGVPDRFSGSGSGTDFTLKISRVEAEDVGVYYCSQSTHSPWTFGGGTKVEIK", "recorded measurement": "420000 M⁻¹ s⁻¹"}

Note: attention shifts to another entry.
*Q* Identify the reported kon for the following entry. 1D4 monoclonal antibody (IgG1) (antibody, V domains shown) VH: EVQLVESGGGLVKPGGSLRLSCAASGFTFSRYSMSWVRQAPGKGLEWVGQINSQGNSTYYPDTVKGRFTISRDDSKNTLYLQMNSLKTEDTAVYYCTTGDRWGQGTLVTVSS VL: DIVMTQTPLSLSVTPGQPASISCRSSQSLIYSDGNAYLHWYLQKPGQSPQLLIYKVSNRFSGVPDRFSGSGSGTDFTLKISRVEAEDVGVYYCSQSTHSPWTFGGGTKVEIK
*A* 120000 M⁻¹ s⁻¹
